- Tested on: MCF-7 human breast adenocarcinoma cell line
- PROTOCOL_DESCRIPTION: MTT cytotoxicity assay
- Assay type: cell-based
- CONDITION_PARAMETERS: Homo sapiens, MCF7, 24 h incubation, 3.9–500 µg/mL
RECORDED_METRIC: IC50 (µg/mL)
One number for each entry, in µg/mL.

Here is how some molecules turned out for IC50.
>>> measured_result("O=[N+]([O-])c1ccc(-c2csc(NN=Cc3ccc(-c4ccc(Cl)cc4[N+](=O)[O-])o3)n2)cc1 [Compound 9]")
103
>>> measured_result("Cc1ccc(-c2csc(NN=Cc3ccc(-c4ccc(Cl)cc4[N+](=O)[O-])o3)n2)cc1 [Compound 13]")
500
>>> measured_result("O=[N+]([O-])c1ccc(-c2ccc(C=NNc3nc(-c4ccc(F)cc4)cs3)o2)cc1 [Compound 3]")
500
>>> measured_result("O=[N+]([O-])c1cc(Cl)ccc1-c1ccc(C=NNc2nc(-c3ccc(F)cc3)cs2)o1 [Compound 10]")
122
>>> measured_result("O=[N+]([O-])c1cc(Cl)ccc1-c1ccc(C=NNc2nc(-c3ccc(Br)cc3)cs2)o1 [Compound 12]")
500

Continue with the molecule presented below.
## Input # input molecule: O=[N+]([O-])c1cc(Cl)ccc1-c1ccc(C=NNc2nc(-c3ccc(Cl)cc3)cs2)o1 [Compound 11] ; wanted: its IC50
## Output 125

###

For each of the compounds below, state its IC50.
- Test system: MCF-7 human breast adenocarcinoma cell line
- PROTOCOL_DESCRIPTION: MTT cytotoxicity assay
- Assay type: cell-based
- CONDITION_PARAMETERS: Homo sapiens, MCF7, 24 h incubation, 3.9–500 µg/mL

For orientation, consider the following solved cases.
>>> measured_result("O=[N+]([O-])c1ccc(-c2csc(NN=Cc3ccc(-c4ccc([N+](=O)[O-])cc4)o3)n2)cc1")
"> 500 µg/mL"
>>> measured_result("O=[N+]([O-])c1ccc(-c2ccc(C=NNc3nc(-c4ccccc4)cs3)o2)cc1")
"> 500 µg/mL"
>>> measured_result("COc1ccc(-c2csc(NN=Cc3ccc(-c4ccc([N+](=O)[O-])cc4)o3)n2)cc1")
"> 500 µg/mL"

Look at each compound and report its IC50.
1. O=[N+]([O-])c1cc(Cl)ccc1-c1ccc(C=NNc2nc(-c3ccccc3)cs2)o1
2. O=[N+]([O-])c1ccc(-c2ccc(C=NNc3nc(-c4ccc(Cl)cc4)cs3)o2)cc1
3. COc1ccc(-c2csc(NN=Cc3ccc(-c4ccc(Cl)cc4[N+](=O)[O-])o3)n2)cc1

## Output
["> 500 µg/mL", "> 500 µg/mL", "> 500 µg/mL"]

Dear colleague, could you please provide IC50 for the compounds listed below?
1. O=[N+]([O-])c1ccc(-c2ccc(C=NNc3nc(-c4ccc(Br)cc4)cs3)o2)cc1
2. Cc1ccc(-c2csc(NN=Cc3ccc(-c4ccc([N+](=O)[O-])cc4)o3)n2)cc1

## Output
1: > 500 µg/mL; 2: > 500 µg/mL
